FYI, the data here is from paper PMC4336329.

# system name: human ether-à-go-go-related gene (hERG) potassium channel (human)
# method notes: primary screen, population patch clamp on CHO cells stably expressing hERG; higher = less effect of the substance
Among all 310,000 compounds or so, about 14,000 (4.5%) showed an effect of 50% or more. Effects have a minus sign here. The sample as a whole holds a higher share of strong results than the screen did.
measure name: hERG current change (%, negative = inhibition) at 10uM (%)
Provide the reading as a plain figure in %.

# return hERG current change (%, negative = inhibition) at 10uM of `CCc1nnc(NS(=O)(=O)c2ccc(NC(=O)c3ccccc3OC)cc2)s1` (system: human ether-à-go-go-related gene (hERG) potassium channel (human))
18.5

# return hERG current change (%, negative = inhibition) at 10uM of `C/C(=N\NC(=O)c1cccc(S(=O)(=O)N2CCOCC2)c1)c1ccc(C)cc1` (system: human ether-à-go-go-related gene (hERG) potassium channel (human))
-3.88

# return hERG current change (%, negative = inhibition) at 10uM of `O=C(NCCSCc1c(F)cccc1Cl)c1ccc(CN2CCOCC2)cc1` (system: human ether-à-go-go-related gene (hERG) potassium channel (human))
-26.9

# return hERG current change (%, negative = inhibition) at 10uM of CCOC(=O)C1(C)C=C(Nc2ccccc2)C(=O)N1c1ccccc1 (stereo not shown) (system: human ether-à-go-go-related gene (hERG) potassium channel (human))
25.7

# return hERG current change (%, negative = inhibition) at 10uM of `C/C(=N\NC(=O)c1cccc(S(=O)(=O)N2CCOCC2)c1)c1ccc(C#N)cc1` (system: human ether-à-go-go-related gene (hERG) potassium channel (human))
-52.6

# return hERG current change (%, negative = inhibition) at 10uM of `O=C(NCCSc1ccccc1)c1ccc(CN2CCOCC2)cc1` (system: human ether-à-go-go-related gene (hERG) potassium channel (human))
-10.3

# return hERG current change (%, negative = inhibition) at 10uM of CCC1CCCCN1CCNC(=O)CNS(=O)(=O)c1ccc2nc(C)sc2c1 (stereo not shown) (system: human ether-à-go-go-related gene (hERG) potassium channel (human))
10.5

# return hERG current change (%, negative = inhibition) at 10uM of `C/C(=N\NC(=O)c1cccc(S(=O)(=O)N2CCCC2)c1)c1ccncc1` (system: human ether-à-go-go-related gene (hERG) potassium channel (human));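 further: peak tail current of the secondary pulse compared with the same well before compound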
-1.9

# return hERG current change (%, negative = inhibition) at 10uM of `Cc1ccc(C)c(NC(=O)COC(=O)Cn2c(C)csc2=O)c1` (system: human ether-à-go-go-related gene (hERG) potassium channel (human));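 further: peak tail current of the secondary pulse compared with the same well before compound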
6.84

# return hERG current change (%, negative = inhibition) at 10uM of `O=C(NCCSCc1ccc(Cl)cc1Cl)c1ccc(CN2CCOCC2)cc1` (system: human ether-à-go-go-related gene (hERG) potassium channel (human));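 further: peak tail current of the secondary pulse compared with the same well before compound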
-54.6

* * *

# system name: human ether-à-go-go-related gene (hERG) potassium channel (human, UniProt Q12809);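 further: peak tail current of the secondary pulse compared with the same well before compound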
# Sequence (Q12809 whole entry, looked up): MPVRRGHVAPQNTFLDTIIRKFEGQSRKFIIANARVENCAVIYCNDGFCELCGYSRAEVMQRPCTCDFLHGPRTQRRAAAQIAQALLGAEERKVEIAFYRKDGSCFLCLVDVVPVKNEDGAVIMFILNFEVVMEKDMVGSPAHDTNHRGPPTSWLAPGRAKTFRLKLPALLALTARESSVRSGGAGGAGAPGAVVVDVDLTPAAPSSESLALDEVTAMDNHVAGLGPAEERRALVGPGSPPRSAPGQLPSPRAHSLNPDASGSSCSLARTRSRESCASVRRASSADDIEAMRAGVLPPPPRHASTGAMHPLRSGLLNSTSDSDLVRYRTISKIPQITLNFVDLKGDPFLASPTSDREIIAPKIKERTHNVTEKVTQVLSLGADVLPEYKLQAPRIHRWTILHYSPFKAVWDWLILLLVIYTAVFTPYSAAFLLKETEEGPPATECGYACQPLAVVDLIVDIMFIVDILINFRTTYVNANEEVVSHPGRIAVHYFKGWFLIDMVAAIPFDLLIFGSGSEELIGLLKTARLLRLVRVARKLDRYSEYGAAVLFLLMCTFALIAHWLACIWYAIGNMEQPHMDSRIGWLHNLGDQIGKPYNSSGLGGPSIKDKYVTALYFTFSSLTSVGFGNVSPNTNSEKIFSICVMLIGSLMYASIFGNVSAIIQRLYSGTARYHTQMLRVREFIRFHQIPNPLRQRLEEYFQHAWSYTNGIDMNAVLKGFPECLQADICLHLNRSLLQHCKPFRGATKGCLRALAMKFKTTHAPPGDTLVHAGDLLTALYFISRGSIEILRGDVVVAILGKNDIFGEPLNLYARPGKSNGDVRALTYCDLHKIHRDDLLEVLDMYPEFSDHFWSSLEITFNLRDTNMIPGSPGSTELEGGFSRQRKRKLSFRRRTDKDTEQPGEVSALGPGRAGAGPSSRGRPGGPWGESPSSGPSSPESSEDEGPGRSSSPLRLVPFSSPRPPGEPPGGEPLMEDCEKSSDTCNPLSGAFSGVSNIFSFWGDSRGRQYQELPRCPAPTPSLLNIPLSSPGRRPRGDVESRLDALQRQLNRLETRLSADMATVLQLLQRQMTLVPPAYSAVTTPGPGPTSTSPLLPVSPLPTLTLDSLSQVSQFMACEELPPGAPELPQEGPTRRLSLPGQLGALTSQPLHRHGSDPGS
# method notes: primary screen, population patch clamp on CHO cells stably expressing hERG; higher = less effect of the substance
In all, about 310,000 compounds went through this assay and about 14,000 (4.5%) showed an effect of 50% or more. Effects have a minus sign here. The sample as a whole holds a higher share of strong results than the screen did.
Kindly return yes (1) if reported hERG current change (%, negative = inhibition) at 10uM is no lower than -50%; return no (0) if it is lower.

Determine whether this molecule has hERG current change (%, negative = inhibition) at 10uM no lower than -50%: O=C(/C=C/c1cn(CC(O)CN2CCCCCC2)c2ccccc12)c1cccs1 (stereo not drawn)
no (0)

Determine whether this molecule has hERG current change (%, negative = inhibition) at 10uM no lower than -50%: CCCCN(C)CC(O)Cn1cc(/C=C/C(=O)c2cccs2)c2ccccc21 (stereo not drawn)
yes (1)

Determine whether this molecule has hERG current change (%, negative = inhibition) at 10uM no lower than -50%: `O=C(CNCc1ccccn1)Nc1cc(C(F)(F)F)ccc1N1CCOCC1.O=C(O)C(=O)O`
no (0)

Determine whether this molecule has hERG current change (%, negative = inhibition) at 10uM no lower than -50%: `COC(=O)CN(C#N)c1nc(NCc2ccccc2)nc(OC)n1`
yes (1)

Determine whether this molecule has hERG current change (%, negative = inhibition) at 10uM no lower than -50%: O=C(/C=C/c1cn(CC(O)CN2CCOCC2)c2ccccc12)c1cccs1 (stereo not drawn)
yes (1)

Determine whether this molecule has hERG current change (%, negative = inhibition) at 10uM no lower than -50%: `Cc1nc2ccccc2nc1OCC(=O)Nc1cc(C(F)(F)F)ccc1N1CCOCC1`
yes (1)

Determine whether this molecule has hERG current change (%, negative = inhibition) at 10uM no lower than -50%: `CCc1nc(SCc2ccccc2C)n[nH]1`
yes (1)

Determine whether this molecule has hERG current change (%, negative = inhibition) at 10uM no lower than -50%: `O=C(CNCc1cccnc1)Nc1cc(C(F)(F)F)ccc1N1CCOCC1.O=C(O)C(=O)O`
no (0)

Determine whether this molecule has hERG current change (%, negative = inhibition) at 10uM no lower than -50%: O=C(/C=C/c1cn(CC(O)CN2CCCCC2)c2ccccc12)c1cccs1 (stereo not drawn)
no (0)
